system: ncRNAs (SEQ ID NO 28-89); assay: ncRNA arrays of melanocytes, keratinocytes, normal skin, melanoma cell lines and patient samples; set-up: species or system human; details: melanoma patient 25 sample compared to normal skin
Field: class. Source value: ncRNA array expression, patient 25. Ranges: band 1 (below -2), band 2 (-2 to below 2), band 3 (2 or more)

Ask | Class for SEQ ID NO 61 (CATACATTGCCCTCACTAATCAATGGACATTTCAGCATTTCATTACTAATTTTGAGAGAA; listed as DNA, chemistry not given here; listed as Homo sapiens) ?
Reply | band 3

Further cases:
Ask | Class (by measured ncRNA array expression, patient 25) for SEQ ID NO 38 (GTAAACAAGGTCTCACAAAAACAGCTGACCACACCATAAAATCACTGAGACCGAGCCTGC; listed as DNA, chemistry not given here; listed as Homo sapiens)
Reply | band 2

Ask | Into which category would you place SEQ ID NO 31 (TTGCTTTTGTATTTGTAATTTTATGACATTTCGAAGTTTCTGTGTCTTAACTCTTTTTAA; listed as DNA, chemistry not given here; listed as Homo sapiens) ?
Reply | band 3

Ask | Please classify: SEQ ID NO 62 (AATCGTTAATATCATTGATATTAAGTAATTTCCCCACTCTGAGTGAATACTTTGATGATG; listed as DNA, chemistry not given here; listed as Homo sapiens)
Reply | band 3

====

system: ncRNAs (SEQ ID NO 28-89); assay: ncRNA arrays of melanocytes, keratinocytes, normal skin, melanoma cell lines and patient samples; design: species or system human; conditions: melanoma patient 23 sample compared to normal skin
Catalogue of substances with associated ncRNA array expression, patient 23
Format: numeric value only, no unit, no commentary.

Ask | Requested read-out: ncRNA array expression, patient 23. Entry: SEQ ID NO 32 (ATTCAAATCTTCATGAATGGCATCACTTGCTTTAGACCCATTTTTTTTTTATTGGTCAGA; DNA, backbone and methylation of C not given here; listed as Homo sapiens)
Reply | 0.8613

Ask | Could you tell me which ncRNA array expression, patient 23 is on file for SEQ ID NO 87 (GGGATATTTTTAAGGGGAAGGGGAAGGATAGAGAGAAAGTGCAGGCAGGGCTGGGGTCTG; listed as DNA, chemistry not given here; listed as Homo sapiens) ?
Reply | −2

Ask | Please report the recorded ncRNA array expression, patient 23 for SEQ ID NO 51 (ATGTATTTTAGGTAATAAGATTTTTATCAATTGTGTCTTTTTCTTTCTTTGCTTTCTATA; listed as DNA, chemistry not given here; listed as Homo sapiens) .
Reply | 0.1918

Ask | Quick one: ncRNA array expression, patient 23 for SEQ ID NO 69 (AGAGTTCGCACTGGGAAGAGTTAAAAAATAAACATTTACAAGGACGAGGAAAGCGGCCCC; listed as DNA, chemistry not given here; listed as Homo sapiens) ?
Reply | −0.2153

Ask | GET /values?readout=ncRNA array expression, patient 23&item= SEQ ID NO 74 (TATATTACAGGAGTTGTCTATACGATTATAGTACCTGATTCTTTGGACATATCATTGAAC; listed as DNA, chemistry not given here; listed as Homo sapiens)
Reply | 1.776

====

We begin with a simple list: items and their reported ncRNA array expression, patient 4.
system: ncRNAs (SEQ ID NO 28-89); experiment: ncRNA arrays of melanocytes, keratinocytes, normal skin, melanoma cell lines and patient samples; design: species or system human; details: melanoma patient 4 sample compared to normal skin
The reply should be a number, written without any unit.

Ask | Recorded ncRNA array expression, patient 4 for SEQ ID NO 28 (CTTAATGTATCTAAGGTTGGCTTAATCCTGTCTAAAATCAAGGTATTGGACTAGAACAAT; DNA, backbone and methylation of C not given here; listed as Homo sapiens) , please?
Reply | 2.709

Ask | Consider the substance SEQ ID NO 70 (AGTTATAGAGGAGGCTCAGGAGGATCTGGGGAAACGGGACCAGAGGGTAAGATGGGTTAT; listed as DNA, chemistry not given here; listed as Homo sapiens) and give its measured ncRNA array expression, patient 4.
Reply | −1.217

Ask | Using the record for SEQ ID NO 73 (AAAGTTTCCCCATAATGCTCTTGCAAGTGAATATGAGCTGTGGTTTTTGCAGTGGAGTTA; listed as DNA, chemistry not given here; listed as Homo sapiens) , report its ncRNA array expression, patient 4.
Reply | 2.477

Ask | Entry SEQ ID NO 59 (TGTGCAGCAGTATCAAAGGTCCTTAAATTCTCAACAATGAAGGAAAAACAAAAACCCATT; listed as DNA, chemistry not given here; listed as Homo sapiens) : reported ncRNA array expression, patient 4 = ?
Reply | −1.168

Ask | // returns reported ncRNA array expression, patient 4 for input SEQ ID NO 42 (TAGACATAGGTTAGAGGGGGAACAGTGCTTAAAATTCCATGGAACTAAGATTTTTTTTAT; listed as DNA, chemistry not given here; listed as Homo sapiens)
Reply | −1.837

Ask | Request the reported ncRNA array expression, patient 4 associated with SEQ ID NO 32 (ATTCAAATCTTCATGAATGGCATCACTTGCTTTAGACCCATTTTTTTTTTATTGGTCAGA; DNA, backbone and methylation of C not given here; listed as Homo sapiens)
Reply | 2.717

Ask | I am curious: what ncRNA array expression, patient 4 value has been reported for SEQ ID NO 65 (CACCGTTTTACTTTTTGTGGGGAGGGGAAGCAGTATCAAAATTTCTTCGGGCGCCAGAAC; listed as DNA, chemistry not given here; listed as Homo sapiens) ?
Reply | −1.215

Ask | Could you tell me which ncRNA array expression, patient 4 is on file for SEQ ID NO 58 (ATTTATTTGACTCTAAAATGACAATATAACAACTATAAGGAATTGATATGATGTCCTTAC; listed as DNA, chemistry not given here; listed as Homo sapiens) ?
Reply | −0.4325

Okay, now this substance:
Ask | Fill in the blank: the reported ncRNA array expression, patient 4 of SEQ ID NO 77 (AAGTTTCCACGGCAGGTTCTCGTAGCACCTTTGGTCAAGAACTGAAGGGGCCTTTAGATG; listed as DNA, chemistry not given here; listed as Homo sapiens) is ____.
Reply | −2.042
